A collection of molecules and their measured growth
test system: MDA-MB-231 breast; assay: NCI-60 one-dose screen, 48 h (100 = growth as untreated, 0 = no growth, -100 = all killed); settings: 10 µM unless noted
About 83,000 compounds went through this panel and 20% of them were active in at least one assay; those are over-represented in the sample as a whole. The source made the active and inactive calls. Rule for the calls: active = growth percent below 10; inactive = the rest.
measured_attribute: growth

>>> measurement("CCCC(O)Cn1ncc(C(=O)OCC)c1NC(=O)NCc1cccc(F)c1 (configuration not stated)")
"103% (inactive)"
>>> measurement("O=C(O)C1CN(c2cccc(Cl)c2)N(c2cccc(Cl)c2)C1=O (configuration not stated)")
"85.1% (inactive)"
>>> measurement("O=C(Nc1cccc(NC(=O)C2CCCCC2)c1)c1ccccn1")
"104% (inactive)"
>>> measurement("O=C1/C(=C/c2ccccc2[N+](=O)[O-])COc2ccc(O)cc21")
"-16.2% (active)"
>>> measurement("CCN1C(=O)N(CC)C2C1NN=c1s/c(=C3\\C(=O)N(CCc4ccccc4)c4ccccc43)c(=O)n12 (configuration not stated)")
"2.5% (active)"
>>> measurement("CCOC(=O)c1c(-c2ccc(Cl)cc2)c(C#N)c2c(C#N)c(N)nn2c1N")
"75.7% (inactive)"
>>> measurement("COc1cccc2c(N=NC(=O)c3ccc(S(N)(=O)=O)cc3)c(O)[nH]c12")
"102% (inactive)"
>>> measurement("CCOC(=O)C1=C(C)N=C2SC=C(c3ccccc3)N2[C@H]1c1cn[nH]c1-c1ccc(Cl)cc1")
"41.9% (inactive)"
>>> measurement("Cn1cc(/C=C2/C(=O)Nc3ccccc32)c2ccccc21")
"109% (inactive)"
>>> measurement("CCCCN1C(=O)/C(=c2\\sc3n(c2=O)NC2C(N=3)N(CC)C(=O)N2CC)c2ccccc21 (configuration not stated)")
"34.6% (inactive)"
>>> measurement("CN1CCN(c2ccc(NC(=O)c3cncnc3Nc3ccc4c(ccn4Cc4cccc(F)c4)c3)cc2)CC1")
"11.9% (inactive)"
>>> measurement("CN1CCN(Cc2ccc(NC(=O)c3cncc(C#Cc4cnn5ccccc45)c3)cc2C(F)(F)F)CC1")
"-7.64% (active)"
>>> measurement("C#Cc1cccc(Oc2ccc(NC(=O)CCl)cc2)c1")
"41.1% [8.25 µM] (inactive)"
>>> measurement("CCOC(=O)c1c(C)nc2ccccc2c1/C=C/c1ccc(OC)cc1")
"74.6% (inactive)"
>>> measurement("CN1C(=O)/C(=C/c2ccc(C(=O)Nc3ncc(Cc4ccc(F)cc4)s3)cc2)SC1=S")
"56.2% (inactive)"
>>> measurement("C=C1C(=O)O[C@H]2[C@H]1CC/C(COC(=O)/C=C\\C(=O)NCc1ccc(Cn3c(=O)sn(-c4ccccc4)c3=O)cc1)=C\\CC[C@@]1(C)O[C@@H]21")
"85.6% (inactive)"
>>> measurement("O=C(CCCCNC(=O)c1cc(=O)c(O)co1)Nc1ccccc1")
"99% (inactive)"
>>> measurement("Cc1ccccc1CNc1c2ccccc2nc2ccccc12")
"39.9% (inactive)"
>>> measurement("C=C1C(=O)O[C@H]2[C@H]1CC/C(Cn1cc(-c3cc(C(F)(F)F)cc(C(F)(F)F)c3)nn1)=C\\CC[C@@]1(C)O[C@@H]21")
"-75.7% (active)"
>>> measurement("Cc1nc2sc(C(=O)Nc3ccccc3)c(N)c2cc1C(=O)/C=C/c1ccccc1")
"-9.1% (active)"
>>> measurement("C=CCOC(=O)C1=C(C)NC(=O)NC1c1c(Cl)n(C)c2ccccc12 (configuration not stated)")
"96% (inactive)"
>>> measurement("CCOC(=O)NN1CC(O)=C(c2nc(-c3ccc(Br)cc3)cs2)C1=N")
"104% (inactive)"
>>> measurement("Cc1[nH]c(C(=O)Nc2cccc(OC3CCNCC3)c2)c(Cl)c1Cl")
"50.7% (inactive)"
>>> measurement("Oc1c(I)cc(-c2nc3ccccc3s2)cc1CN(Cc1ccccn1)Cc1ccccn1")
"34.9% (inactive)"
>>> measurement("CCOC(=O)CSc1nc2sc3c(c2c(=O)n1-c1ccc([N+](=O)[O-])cc1)CCCCC3")
"50.4% (inactive)"
>>> measurement("COc1cc(C(=O)C(=O)c2cc(OC)c(O)c(OC)c2)cc(OC)c1O")
"97.2% (inactive)"
>>> measurement("O=C(CSc1nc2ccc([N+](=O)[O-])cc2[nH]1)Nc1ccc(Br)cc1")
"67.7% (inactive)"
>>> measurement("O=C1/C(=C/c2cccc([N+](=O)[O-])c2)COc2ccc(O)cc21")
"47.9% (inactive)"
>>> measurement("CCCCCCC(=O)Nc1ncc(Cc2ccc(C)cc2)s1")
"59.9% (inactive)"
>>> measurement("Cc1c2ccccc2nc2c1ccc1cccnc12")
"103% (inactive)"
>>> measurement("Cc1c(N2CN3C[C@H](C)N4CN(c5c(C)n(C)n(-c6ccccc6)c5=O)CN5C[C@@H](C)N(C2)C3C54)c(=O)n(-c2ccccc2)n1C (some centres not stated)")
"117% (inactive)"
>>> measurement("CCC(CC)(N(CC(=O)O)CC(=O)O)C(CC)(CC)N(CC(=O)O)CC(=O)O")
"110% (inactive)"

All values here come from PubChem BioAssay (NCI).
